Where do the numbers come from? From patent US4024224A.

System: ascites Sarcoma 180
Assay: Antitumor activity and toxicity on ascites Sarcoma 180 in CD 1 mice
Type: in vivo
Conditions: 12.5 mg./kg. i.p. 1 day after tumor implant; survivors/total
The entries below come with measured LTS (Long Term Survivors after 60 days) values attached.

The cases that follow already have their LTS (Long Term Survivors after 60 days) on record.
# input Report LTS (Long Term Survivors after 60 days) for COc1cccc2c1C(=O)c1c(O)c3c(c(O)c1C2=O)C[C@@](O)(C(=O)CN1CCN(CCO)CC1)C[C@@H]3O[C@H]1C[C@H](N)[C@H](O)[C@H](C)O1 please.
# output 0/10

# input Report LTS (Long Term Survivors after 60 days) for COc1cccc2c1C(=O)c1c(O)c3c(c(O)c1C2=O)C[C@@](O)(C(=O)CN1CCN(C)CC1)C[C@@H]3O[C@H]1C[C@H](N)[C@H](O)[C@H](C)O1 [14-[N-(N'-methyl)-piperazino]-daunomycin] please.
# output 3/10

# input Report LTS (Long Term Survivors after 60 days) for COc1cccc2c1C(=O)c1c(O)c3c(c(O)c1C2=O)C[C@@](O)(C(=O)CN(CCO)CCO)C[C@@H]3O[C@H]1C[C@H](N)[C@H](O)[C@H](C)O1 [14-diethanolaminodaunomycin] please.
# output 0/10

Shift focus to the following entry.
# input Report LTS (Long Term Survivors after 60 days) for COc1cccc2c1C(=O)c1c(O)c3c(c(O)c1C2=O)C[C@@](O)(C(=O)CN1CCCCC1)C[C@@H]3O[C@H]1C[C@H](N)[C@H](O)[C@H](C)O1 [14-(N-piperidino)-daunomycin] please.
# output 2/10

---

Assay: Antitumor activity and toxicity on ascites Sarcoma 180 in CD 1 mice
Format: in vivo
Conditions: mouse, in vivo, ip; 12.5 mg./kg. i.p.; read-out: % Toxic Deaths
The entries below come with measured mortality values attached.

# input Report mortality for COc1cccc2c1C(=O)c1c(O)c3c(c(O)c1C2=O)C[C@@](O)(C(=O)CN1CCN(CCO)CC1)C[C@@H]3O[C@H]1C[C@H](N)[C@H](O)[C@H](C)O1 please.
# output 0%

# input Report mortality for COc1cccc2c1C(=O)c1c(O)c3c(c(O)c1C2=O)C[C@@](O)(C(=O)CN1CCCCC1)C[C@@H]3O[C@H]1C[C@H](N)[C@H](O)[C@H](C)O1 [14-(N-piperidino)-daunomycin] please.
# output 0%

# input Report mortality for COc1cccc2c1C(=O)c1c(O)c3c(c(O)c1C2=O)C[C@@](O)(C(=O)CN1CCN(C)CC1)C[C@@H]3O[C@H]1C[C@H](N)[C@H](O)[C@H](C)O1 [14-[N-(N'-methyl)-piperazino]-daunomycin] please.
# output 10%

Continuing:
# input Report mortality for COc1cccc2c1C(=O)c1c(O)c3c(c(O)c1C2=O)C[C@@](O)(C(=O)CN(CCO)CCO)C[C@@H]3O[C@H]1C[C@H](N)[C@H](O)[C@H](C)O1 [14-diethanolaminodaunomycin] please.
# output 0%

---

Test system: ascites Sarcoma 180
Assay: Antitumor activity and toxicity on ascites Sarcoma 180 in CD 1 mice
Type: in vivo
Conditions: 25 mg./kg. i.p. 1 day after tumor implant; 60 days
parameter.measured: % LTS (%)
Number in %, nothing else.

The cases that follow already have their % LTS on record.
# input Report % LTS for COc1cccc2c1C(=O)c1c(O)c3c(c(O)c1C2=O)C[C@@](O)(C(=O)CN1CCN(C)CC1)C[C@@H]3O[C@H]1C[C@H](N)[C@H](O)[C@H](C)O1 [14-[N-(N'-methyl)-piperazino]-daunomycin] please.
# output 30

# input Report % LTS for COc1cccc2c1C(=O)c1c(O)c3c(c(O)c1C2=O)C[C@@](O)(C(=O)CN1CCCCC1)C[C@@H]3O[C@H]1C[C@H](N)[C@H](O)[C@H](C)O1 [14-(N-piperidino)-daunomycin] please.
# output 20

# input Report % LTS for COc1cccc2c1C(=O)c1c(O)c3c(c(O)c1C2=O)C[C@@](O)(C(=O)CN1CCOCC1)C[C@@H]3O[C@H]1C[C@H](N)[C@H](O)[C@H](C)O1 [14-(N-morpholino)-daunomycin] please.
# output 29

Continuing:
# input Report % LTS for COc1cccc2c1C(=O)c1c(O)c3c(c(O)c1C2=O)C[C@@](O)(C(=O)CN(CCO)CCO)C[C@@H]3O[C@H]1C[C@H](N)[C@H](O)[C@H](C)O1 [14-diethanolaminodaunomycin] please.
# output 20

# input Report % LTS for COc1cccc2c1C(=O)c1c(O)c3c(c(O)c1C2=O)C[C@@](O)(C(=O)CN1CCN(CCO)CC1)C[C@@H]3O[C@H]1C[C@H](N)[C@H](O)[C@H](C)O1 please.
# output 10

---

Assay: Antitumor activity and toxicity on ascites Sarcoma 180 in CD 1 mice
Format: in vivo
Conditions: mouse, in vivo, ip; 10 mg./kg. i.p.; read-out: % Toxic Deaths
parameter.measured: mortality (%)
Number in %, nothing else.

# input Report mortality for COc1cccc2c1C(=O)c1c(O)c3c(c(O)c1C2=O)C[C@@](O)(C(=O)CO)C[C@@H]3O[C@H]1C[C@H](N)[C@H](O)[C@H](C)O1 [Adriamycin, reference compound] please.
# output 20

---

Tested on: ascites Sarcoma 180
Experiment: Antitumor activity and toxicity on ascites Sarcoma 180 in CD 1 mice
Format: in vivo
Conditions: 50 mg./kg. i.p.; deaths/total
The entries below come with measured Toxic Deaths values attached.

# input Report Toxic Deaths for COc1cccc2c1C(=O)c1c(O)c3c(c(O)c1C2=O)C[C@@](O)(C(=O)CN1CCN(CCO)CC1)C[C@@H]3O[C@H]1C[C@H](N)[C@H](O)[C@H](C)O1 please.
# output 3/10

# input Report Toxic Deaths for COc1cccc2c1C(=O)c1c(O)c3c(c(O)c1C2=O)C[C@@](O)(C(=O)CN1CCCCC1)C[C@@H]3O[C@H]1C[C@H](N)[C@H](O)[C@H](C)O1 please.
# output 4/10

# input Report Toxic Deaths for COc1cccc2c1C(=O)c1c(O)c3c(c(O)c1C2=O)C[C@@](O)(C(=O)CN1CCOCC1)C[C@@H]3O[C@H]1C[C@H](N)[C@H](O)[C@H](C)O1 please.
# output 1/7

# input Report Toxic Deaths for COc1cccc2c1C(=O)c1c(O)c3c(c(O)c1C2=O)C[C@@](O)(C(=O)CN(CCO)CCO)C[C@@H]3O[C@H]1C[C@H](N)[C@H](O)[C@H](C)O1 please.
# output 0/17

Shift focus to the following entry.
# input Report Toxic Deaths for COc1cccc2c1C(=O)c1c(O)c3c(c(O)c1C2=O)C[C@@](O)(C(=O)CN1CCN(C)CC1)C[C@@H]3O[C@H]1C[C@H](N)[C@H](O)[C@H](C)O1 [14-[N-(N'-methyl)-piperazino]-daunomycin] please.
# output 5/10

---

The entries below come with measured Toxic Deaths values attached.
System: ascites Sarcoma 180
Assay: Antitumor activity and toxicity on ascites Sarcoma 180 in CD 1 mice
Type: in vivo
Settings: 12.5 mg./kg. i.p.; deaths/total

The cases that follow already have their Toxic Deaths on record.
# input Report Toxic Deaths for COc1cccc2c1C(=O)c1c(O)c3c(c(O)c1C2=O)C[C@@](O)(C(=O)CN1CCCCC1)C[C@@H]3O[C@H]1C[C@H](N)[C@H](O)[C@H](C)O1 please.
# output 0/10

# input Report Toxic Deaths for COc1cccc2c1C(=O)c1c(O)c3c(c(O)c1C2=O)C[C@@](O)(C(=O)CN1CCN(C)CC1)C[C@@H]3O[C@H]1C[C@H](N)[C@H](O)[C@H](C)O1 [14-[N-(N'-methyl)-piperazino]-daunomycin] please.
# output 1/10

# input Report Toxic Deaths for COc1cccc2c1C(=O)c1c(O)c3c(c(O)c1C2=O)C[C@@](O)(C(=O)CN1CCN(CCO)CC1)C[C@@H]3O[C@H]1C[C@H](N)[C@H](O)[C@H](C)O1 please.
# output 0/10

Shift focus to the following entry.
# input Report Toxic Deaths for COc1cccc2c1C(=O)c1c(O)c3c(c(O)c1C2=O)C[C@@](O)(C(=O)CN(CCO)CCO)C[C@@H]3O[C@H]1C[C@H](N)[C@H](O)[C@H](C)O1 please.
# output 0/10

---

Test system: ascites Sarcoma 180
Test: Antitumor activity and toxicity on ascites Sarcoma 180 in CD 1 mice
Type: in vivo
Conditions: 5 mg./kg. i.p. 1 day after tumor implant; survivors/total
The entries below come with measured LTS (Long Term Survivors after 60 days) values attached.

The cases that follow already have their LTS (Long Term Survivors after 60 days) on record.
# input Report LTS (Long Term Survivors after 60 days) for COc1cccc2c1C(=O)c1c(O)c3c(c(O)c1C2=O)C[C@@](O)(C(=O)CN1CCCCC1)C[C@@H]3O[C@H]1C[C@H](N)[C@H](O)[C@H](C)O1 [14-(N-piperidino)-daunomycin] please.
# output 2/10

# input Report LTS (Long Term Survivors after 60 days) for COc1cccc2c1C(=O)c1c(O)c3c(c(O)c1C2=O)C[C@@](O)(C(=O)CN(CCO)CCO)C[C@@H]3O[C@H]1C[C@H](N)[C@H](O)[C@H](C)O1 [14-diethanolaminodaunomycin] please.
# output 0/10

Shift focus to the following entry.
# input Report LTS (Long Term Survivors after 60 days) for COc1cccc2c1C(=O)c1c(O)c3c(c(O)c1C2=O)C[C@@](O)(C(C)=O)C[C@@H]3O[C@H]1C[C@H](N)[C@H](O)[C@H](C)O1 [Daunomycin] please.
# output 3/20
